Listed here: items and their measured melting point.

The following compounds have reported results that may help.
Task item: I'd like to know its melting point. The compound in question is "CCCC#CCn1ncc(-c2ccc(S(C)(=O)=O)cc2)c(-c2ccc(F)cc2)c1=O"
Reply: 79 to 80 °C

Task item: I'd like to know its melting point. The compound in question is "CN(C(=S)c1ccc2nonc2c1)C1CCOCC1"
Reply: 174 to 175 °C

Task item: I'd like to know its melting point. The compound in question is "NP(N)(=O)OCC(Cl)(Cl)Cl"
Reply: 86 to 87 °C

***
Task item: I'd like to know its melting point. The compound in question is "CC(C)(C)c1csc(N)c1C#N"
Reply: 92 °C

Task item: I'd like to know its melting point. The compound in question is "N=C(NO)c1cccc2c1nc(-c1c(F)cccc1F)n2Cc1c(F)cccc1F"
Reply: 214 to 216 °C

Task item: I'd like to know its melting point. The compound in question is "Clc1cccc(-c2ncoc2-c2ccncc2)c1"
Reply: 125 to 126 °C

Task item: I'd like to know its melting point. The compound in question is "Cc1oc(-c2cccc(-c3ccccc3)c2)nc1CCOc1cccc(OC(C)(C)C(=O)O)c1"
Reply: 67 to 71 °C

====

Measurement type: melting point

Task item: I'd like to know its melting point. The compound in question is "C[C@@H]1CN(Cc2ccc(F)cc2)CCN1C(=O)/C=C/c1ccc(Cl)cc1NC(=O)N1CCNC1=O"
Reply: 275 to 277 °C

Task item: I'd like to know its melting point. The compound in question is "CC(=O)N1CCN(c2ccc(Nc3nccc(-c4sc(-c5cccnc5)nc4C)n3)cc2)CC1"
Reply: 123 to 125 °C

Task item: I'd like to know its melting point. The compound in question is COc1ccc2c(c1)CCC1C2CCC2(C)C1CCC2N(C)CCOCCO (configuration not stated)
Reply: 102 °C

***
Task item: I'd like to know its melting point. The compound in question is "CC1(C)CCSc2ccc(-c3cc(-c4ccc(C(=O)O)cc4)ccc3-c3ccccc3)cc21"
Reply: 51 °C

Task item: I'd like to know its melting point. The compound in question is "O=C(Nc1nc(C(F)(F)C(F)(F)F)c(CF)s1)c1cc(C(F)(F)F)cc(C(F)(F)F)c1"
Reply: 133 to 134 °C

Task item: I'd like to know its melting point. The compound in question is CCCC1=C([N+](=O)[O-])C(c2ccccc2Cl)c2c[nH]nc2N1 (configuration not stated)
Reply: 228 °C

Task item: I'd like to know its melting point. The compound in question is "O=C(O)CCn1nc(-c2c(-c3ccccc3)nn3ccccc23)cc1O"
Reply: 211 to 213 °C

Task item: I'd like to know its melting point. The compound in question is "COc1ccc(-c2nc(Cn3cnnc3)nc3cc(OC)c(OC)cc23)cc1"
Reply: 212 to 213 °C

Task item: I'd like to know its melting point. The compound in question is "Cn1nc(O)c(Cl)c1Cl"
Reply: 212 to 216 °C

Task item: I'd like to know its melting point. The compound in question is "CSc1cc(NCc2nc3ccccc3o2)c(=O)[nH]c1C"
Reply: 180 to 181 °C

Task item: I'd like to know its melting point. The compound in question is "CC(=O)Nc1cc(CN2CCCCC2)c(O)c2c1CCCC2"
Reply: 166 to 167 °C

Task item: I'd like to know its melting point. The compound in question is "COC(=O)CCCNC(=O)c1cc(O)ccc1O"
Reply: 155 to 159 °C

Task item: I'd like to know its melting point. The compound in question is "CC(C)Oc1c(C(=O)Nc2nnn[nH]2)sc2c1CCCC2"
Reply: 223 to 225 °C

Task item: I'd like to know its melting point. The compound in question is "O=c1[nH]c2ccc(Cl)cc2c(=O)n1CCCS"
Reply: 255 to 257 °C

Task item: I'd like to know its melting point. The compound in question is "Cc1ccn(Cc2ccc(Cl)c(Cl)c2)c(=O)c1C(=O)O"
Reply: 219 to 221 °C
